conditions: Liquid; pulse-heating method
# key: entry, value: Critical temperature
quantity measured: Critical temperature (K)

>>> df
                                    compound     quantity_measured  measurement_units  number
 0  CCCCOC(=O)c1ccccc1C(=O)OCCCC [dibutyl phthalate]  Critical temperature                  K     797
 1  CCCCCCCCCOC(=O)c1ccccc1C(=O)OCCCCCCCCC [dinonyl phthalate]  Critical temperature                  K     858
 2  COC(=O)c1ccccc1C(=O)OC [dimethyl 1,2-benzenedicarboxylate]  Critical temperature                  K     772
 3  CCCCCCCOC(=O)c1ccccc1C(=O)OCCCCCCC [diheptyl phthalate]  Critical temperature                  K     830
 4  CCCCCCCCCCOC(=O)c1ccccc1C(=O)OCCCCCCCCCC [didecyl phthalate]  Critical temperature                  K     870
 5  CCOC(=O)c1ccccc1C(=O)OCC [diethyl phthalate]  Critical temperature                  K     776
 6  CCCCCCOC(=O)c1ccccc1C(=O)OCCCCCC [dihexyl phthalate]  Critical temperature                  K     817
 7  CCCCCCCCCCCOC(=O)c1ccccc1C(=O)OCCCCCCCCCCC [diundecyl phthalate]  Critical temperature                  K     886
 8  CCCCC(CC)COC(=O)c1ccccc1C(=O)OCC(CC)CCCC (configuration not stated) [bis(2-ethylhexyl) 1,2-benzenedicarboxylate]  Critical temperature                  K     835
 9  CCCCCCCCOC(=O)c1ccccc1C(=O)OCCCCCCCC [dioctyl 1,2-benzenedicarboxylate]  Critical temperature                  K     840
10                CCCOC(=O)c1ccccc1C(=O)OCCC  Critical temperature                  K     784
11            CCCCCOC(=O)c1ccccc1C(=O)OCCCCC  Critical temperature                  K     811
